Hey, just so you know, these numbers are from PubChem BioAssay AID686949.

target: Kallikrein-7 (Homo sapiens); experiment: activation of human kallikrein-7 proenzyme – biochemical, fluorescence intensity, triplicate, confirmation (AID 686949); details: purified proKLK7, EDANS-DABCYL substrate fluorescence; at 7 µM; active compounds read high; scaled: vehicle 0, mature enzyme 100
In all, about 3,200 compounds went through this assay and about 2,200 (69%) were called active. The set was probably picked from earlier hits. The list is a sample of the results.
Exercise: for every item that follows, state its recorded activation.
Give just the number in %; leave the unit off.

## Task What does the record list as activation for CCCCCn1c(=O)c(C(=O)OCC)c(Cl)c2ccccc21 ?
## Result -0.17

## Task Requested read-out: activation. Entry: CCOC(OCC)c1ccc(/C=C\c2nccc(N)n2)cc1
## Result -9.52

## Task Which activation value is on record for N#CC1=C(N)Oc2c(sc3ccccc23)C1c1ccco1 (stereo not given) ?
## Result -25.1

## Task Tell me the measured activation of CN(C)CCCn1c(N)c(C#N)c2nc(C#N)c(C#N)nc21 , please.
## Result 38

## Task Returns the measured activation for the input compound. Input: COCc1cc(=O)oc2cc(NS(=O)(=O)c3ccc(C)cc3)ccc12
## Result 72.3

## Task What value of measured activation is listed for Cc1cccc(C)c1NC(=O)C(c1ccccc1)N1CC(=O)Nc2ccccc21 (stereo not given) ?
## Result 40.3

## Task Item C=CCn1c(N)c(S(=O)(=O)c2cccs2)c2nc3ccccc3nc21 has what recorded activation?
## Result 8.74

## Task Quick one: activation of COCCCn1c(-c2cccs2)nc2nc3ccccc3nc21 ?
## Result 24.1

## Task Please look up its activation: CCOC(=O)c1[nH]c2ccc(OC)cc2c1NC(=O)CCN1CCN(Cc2ccccc2)CC1
## Result 1.17

## Task # query: activation of entry CN(C(=O)c1ccccn1)c1nnc(-c2ccccn2)s1
## Result 74

## Task Data request, read-out activation, for CN(CCc1ccccn1)S(=O)(=O)c1ccc2c3c(cccc13)C(=O)N2
## Result 68.2

## Task Name the recorded activation for Cc1ccc(C2Nc3ccccc3C(=O)N2CCN2CCNC2=O)cc1 (stereo not given) .
## Result 16.7

## Task What does the record list as activation for COCC(=O)Nc1nnc(COc2ccccc2)s1 ?
## Result -0.07

## Task Recorded activation for O=C(Oc1c(-c2ccco2)oc2ccccc2c1=O)c1cccnc1 , please?
## Result 22.3

## Task Entry CCOc1ccccc1C1C(C(=O)OC)=CN(C)C=C1C(=O)OC : reported activation = ?
## Result -23.5

## Task Name the recorded activation for Cc1c(C)c2c(OCC(=O)NCCCO)cc3c(c2oc1=O)CCC(C)(C)O3 .
## Result 44.6

## Task Can you share its activation? I mean this compound: Cc1nn(-c2ccccc2)c(C)c1NC(=O)COC(=O)c1cc(Cl)ccc1O
## Result 24.2

## Task Name the recorded activation for CCCCN(CCCC)CC(O)Cn1c2ccccc2c(=O)c2ccccc21 (stereo not given) .
## Result 13.8

## Task Quick check: activation of COc1c(N2CCN(C(=S)Nc3ccccc3F)C(C)C2)c(F)cc2c(=O)c(C(=O)O)cn(C3CC3)c12 (stereo not given) ?
## Result 18.5

## Task Tell me the measured activation of CCN(CC)CCCC(C)n1c2nc(=O)[nH]c(=O)c-2nc2cc(Cl)ccc21 (stereo not given) , please.
## Result 75.6
